Assay: Metabolic stability: % metabolism after 60 minutes incubation with active liver microsomes
Format: in vitro ADME
Conditions: compound 5 μM, microsomes 1 mg/ml, NADPH-generating system, 60 minutes at 37 degrees Celsius
Method: Sub-cellular tissue preparations were made according to Gorrod et al. (Xenobiotica 5:453-462, 1975) by centrifugal separation after mechanical homogenization of tissue. Liver tissue was rinsed in ice-cold 0.1 M Tris-HCl (pH 7.4) buffer to wash excess blood. […] Metabolic stability was expressed as % metabolism of the compound after 60 minutes (equation given as example) of incubation in the presence of active microsomes (E(act))
measurement_label: % metabolised compound (compounds of present invention) (%)

(1) CCNc1cc2c(c(C(=O)NC[C@@H]3CCN(CCCOC)C[C@H]3O)c1)OCCCO2
(2) CCCCN1CC[C@@H](CNC(=O)c2cc(C#N)cc3c2OCCCO3)[C@H](O)C1
Compare 1 and 2 by numeric % metabolised compound (compounds of present invention) and name the larger one. I would appreciate it if you answered with the label of your choice. 2
